- measured target: T1, human GPC3 (human, UniProt P51654 25-563)
- T1 construct: range 25-563; soluble analyte; also called soluble human GPC3; glypican 3
- T1 sequence (P51654 25-563 limits assumed): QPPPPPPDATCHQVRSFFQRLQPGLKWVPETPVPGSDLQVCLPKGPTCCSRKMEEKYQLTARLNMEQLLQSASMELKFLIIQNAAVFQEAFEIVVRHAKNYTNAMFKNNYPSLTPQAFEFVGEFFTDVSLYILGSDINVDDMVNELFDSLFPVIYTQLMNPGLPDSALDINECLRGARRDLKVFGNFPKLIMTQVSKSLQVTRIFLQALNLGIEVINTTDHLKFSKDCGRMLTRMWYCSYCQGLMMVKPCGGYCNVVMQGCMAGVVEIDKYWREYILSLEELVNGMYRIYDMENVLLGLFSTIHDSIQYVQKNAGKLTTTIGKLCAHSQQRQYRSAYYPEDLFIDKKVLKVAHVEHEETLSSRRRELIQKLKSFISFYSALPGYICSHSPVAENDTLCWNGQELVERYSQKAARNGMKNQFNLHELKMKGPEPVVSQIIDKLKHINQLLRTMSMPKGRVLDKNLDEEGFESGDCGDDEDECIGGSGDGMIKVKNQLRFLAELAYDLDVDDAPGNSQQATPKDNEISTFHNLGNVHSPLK
- assay text: SPR
pKd overview
In simple prose, pKd is minus the logarithm base ten of a concentration in moles per litre.

Solved cases below.
* GCH100-G1dh/none-Hi-Kn010G3/L0011-k0 (antibody, V domains shown, one-arm) VH: QVQLVQSGAEVKKPGASVTVSCKASGYTFTDYEMHWVRQAPGEGLEWMGAIDGYTPDTAYSEKFKGRVTLTADKSTSTAYMELSSLTSEDTAVYYCTRFYSYTYWGQGTLVTVSS VL: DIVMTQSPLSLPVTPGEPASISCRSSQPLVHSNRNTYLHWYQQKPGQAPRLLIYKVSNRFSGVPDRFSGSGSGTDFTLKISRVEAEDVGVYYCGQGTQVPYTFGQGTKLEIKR | 8.42
* GCH054-G1dh/none-Hi-Kn010G3/TR01L016-k0 (antibody, V domains shown, one-arm) VH: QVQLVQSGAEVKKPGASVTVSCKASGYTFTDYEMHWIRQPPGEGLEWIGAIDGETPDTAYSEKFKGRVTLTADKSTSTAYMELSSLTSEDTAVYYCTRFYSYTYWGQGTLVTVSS VL: DIVMTQSPLSLPVTPGEPASISCRSSQSPVHSNRNTYLHWYLQKPGQSPQLLIYKVSNRFSGVPDRFSGSGSGTDFTLKISRVEAEDVGVYYCYQGTQVPYTFGQGTKLEIK | 9.12

Continue with the next binder.
Q: Provide one value: measured pKd of H0610-G1dh/none-Hi-Kn010G3/L0046-k0 (antibody, V domains shown, one-arm) VH: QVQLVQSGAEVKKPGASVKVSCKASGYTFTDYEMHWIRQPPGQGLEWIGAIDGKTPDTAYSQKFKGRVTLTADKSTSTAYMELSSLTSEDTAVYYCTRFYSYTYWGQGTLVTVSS VL: DIVMTQSPLSLPVTPGEPASISCRSSQSLVHVNRNTYLHWYQQKPGQAPRLLIYKVSNRFSGVPDRFSGSGSGTDFTLKISRVEAEDVGVYYCGQGTQVPYTFGQGTKLEIK
Ans: 8.26

meta.source: patent US20250066503A1
